- System: benzodiazepine receptor
- Assay summary: in vivo displacement of 3H-flunitrazepam binding on the benzodiazepine receptor in live brain
- Condition summary: mice, normally i.p.; 3H-flunitrazepam i.v. after 15 minutes; 50% reduction of specific binding in forebrain
I'd appreciate it if you marked entries criterion met when ED50 in vivo is lower than 2 mg/kg and criterion not met when it is not.

INSERT INTO assay_data (compound, label_class) VALUES
  ('CCOC(C)c1ccc2[nH]c3cnc(-c4nc(CC)no4)c(CC)c3c2c1 (stereo not shown) [6-CH(CH3)OC2 H5, C2 H5, drawing 9]', 'criterion met'),
  ('CCOC(=O)c1ncc2[nH]c3ccc(C(C)OCC(F)(F)F)cc3c2c1C (stereo not shown) [6-CH(CH3)OCH2 CF3, CH3, COOC2 H5]', 'criterion met'),
  ('CCCOC(C)c1cccc2[nH]c3cnc(C(=O)OC(C)C)c(C)c3c12 (stereo not shown) [5-CH(CH3)OC3 H7, CH3, drawing 5]', 'criterion met'),
  ('CCOC(CC)c1cccc2[nH]c3cnc(-c4nc(CC)no4)c(COC)c3c12 (stereo not shown) [5-CH(C2 H5)OC2 H5, CH2 OCH3, drawing 8]', 'criterion not met'),
  ('CCOC(=O)c1ncc2[nH]c3ccc(C(C)SCC)cc3c2c1C (stereo not shown) [6-CH(CH3)SC2 H5, CH3, COOC2 H5]', 'criterion met'),
  ('CCOC(CC)c1cccc2[nH]c3cnc(-c4nc(CC)no4)c(C)c3c12 (stereo not shown) [5-CH(C2 H5)OC2 H5, CH3, drawing 7]', 'criterion not met');

====

- Assayed target: benzodiazepine receptors
- Assay summary: displacement of 3H-flunitrazepam from benzodiazepine receptors in vitro
- Assay type: binding
- Condition summary: 3H-flunitrazepam 1.0 nM, 0° C., rat forebrain membranes, pH 7.1
We begin with a simple list: items and their reported IC50 in vitro.
Measurement name: IC50 in vitro (ng/mL)

INSERT INTO measurements (compound, assayed_target, measurement_name, number) VALUES
  ('CCOC(CC)c1cccc2[nH]c3cnc(-c4nc(CC)no4)c(COC)c3c12 (stereo not shown) [5-CH(C2 H5)OC2 H5, CH2 OCH3, drawing 8]', 'benzodiazepine receptors', 'IC50 in vitro', 0.2),
  ('CCOCc1cccc2[nH]c3cnc(C(=O)OCC)c(C)c3c12 [5-CH2 OC2 H5, CH3, COOC2 H5, reference compound]', 'benzodiazepine receptors', 'IC50 in vitro', 0.8),
  ('CCOC(=O)c1ncc2[nH]c3ccc(C(C)SCC)cc3c2c1C (stereo not shown) [6-CH(CH3)SC2 H5, CH3, COOC2 H5]', 'benzodiazepine receptors', 'IC50 in vitro', 1.2),
  ('CCCOC(C)c1cccc2[nH]c3cnc(C(=O)OC(C)C)c(C)c3c12 (stereo not shown) [5-CH(CH3)OC3 H7, CH3, drawing 5]', 'benzodiazepine receptors', 'IC50 in vitro', 0.75),
  ('CCCOC(C)c1cccc2[nH]c3cnc(C(=O)OCC)c(C)c3c12 (stereo not shown) [5-CH(CH3)OC3 H7, CH3, COOC2 H5]', 'benzodiazepine receptors', 'IC50 in vitro', 0.4),
  ('CCOC(C)c1cccc2[nH]c3cnc(-c4nc(CC)no4)c(C)c3c12 (stereo not shown) [5-CH(CH3)OC2 H5, CH3, drawing 6]', 'benzodiazepine receptors', 'IC50 in vitro', 0.3),
  ('CCOC(CC)c1cccc2[nH]c3cnc(-c4nc(CC)no4)c(C)c3c12 (stereo not shown) [5-CH(C2 H5)OC2 H5, CH3, drawing 7]', 'benzodiazepine receptors', 'IC50 in vitro', 0.4);

Reference source: patent US4778800A
